# Tested on: OVCAR-8 ovarian
# assay.summary: NCI-60 one-dose screen, 48 h (100 = growth as untreated, 0 = no growth, -100 = all killed)
# protocol.conditions: 10 µM unless noted
This is part of a sample that, as a whole, favours compounds with a hit. Of some 83,000 tested, about 20% had one in any assay. Calls of active or inactive are those of the source. Rule for the calls: active = growth percent below 10; inactive = the rest.
// reported growth per item
result.type: growth

compound: CC(C)C1=NOC(=O)C1=Cc1cn(-c2ccccc2)nc1-c1cccc([N+](=O)[O-])c1
study.system: OVCAR-8 ovarian
observed: 58% (inactive)
--
compound: COc1cc2c(cc1OCCCCCOc1ccc(-n3c(C)nc4ccccc4c3=O)cc1)N=C[C@@H]1CCCN1C2=O
study.system: OVCAR-8 ovarian
observed: 9.85% (active)
--
compound: O=C(CSc1nccc(Nc2ccc(S(=O)(=O)Nc3ccccn3)cc2)n1)c1ccc(Cl)cc1
study.system: OVCAR-8 ovarian
observed: 84.2% (inactive)
--
compound: O=C(CCCSc1nc(-c2ccccc2)cc(-c2ccccc2)n1)NO
study.system: OVCAR-8 ovarian
observed: 5.38% (active)
--
compound: O=C(Oc1ccc(Cl)cc1[N+](=O)[O-])Oc1ccc(Cl)cc1[N+](=O)[O-]
study.system: OVCAR-8 ovarian
observed: 108% (inactive)
--
compound: COC(=O)[C@]12CCC(C)(C)C[C@H]1C1=CC[C@@H]3[C@@]4(C)C/C(=C/c5cccnc5)C(=O)C(C)(C)[C@@H]4CC[C@@]3(C)[C@]1(C)CC2
study.system: OVCAR-8 ovarian
observed: 0.407% [100 µM] (active)
--
compound: CCOC(=O)c1nn(C2CCCCO2)c2ccc(NC(=O)Cn3nnc4ccccc43)cc12 (centres undefined)
study.system: OVCAR-8 ovarian
observed: 101% (inactive)
--
compound: Nc1nc(N)c2c(n1)NC(c1ccc(F)cc1)C1CCc3ccccc3C1=N2 (centres undefined)
study.system: OVCAR-8 ovarian
observed: 70.4% (inactive)
--
compound: O=C(Nc1cc(F)cc2cccnc12)c1cnc(N2CCNCC2)cn1
study.system: OVCAR-8 ovarian
observed: 72.4% (inactive)
--
compound: Cn1cc(-c2noc(-c3cn(C)c4ncc(F)cc34)n2)c2ccccc21
study.system: OVCAR-8 ovarian
observed: 40% (inactive)
--
compound: O=C(N=c1n(-c2ccccc2)nc2n1CCN2C1=NCCN1C(=O)c1ccc(Cl)cc1)c1ccc(Cl)cc1
study.system: OVCAR-8 ovarian
observed: 78.7% (inactive)
--
compound: Cn1ncc2c(Nc3ccc(O)cc3)nc(Cl)nc21
study.system: OVCAR-8 ovarian
observed: 104% (inactive)
--
compound: COC(=O)[C@]1(C)CC[C@]2(C)CC[C@]3(C)C(=CC(=O)[C@@H]4[C@@]5(C)CCC(=O)NC(C)(C)[C@@H]5CC[C@]43C)[C@@H]2C1
study.system: OVCAR-8 ovarian
observed: -39.8% [100 µM] (active)
--
compound: CCc1ccc(-c2ccc(COc3ccc(CC4SC(=O)NC4=O)cc3)cc2)cc1 (centres undefined)
study.system: OVCAR-8 ovarian
observed: 77.2% (inactive)
--
compound: CCn1cc(-c2cc(-c3ccc(Cl)cc3)nc(N)n2)c(-c2ccc(Br)cc2)n1
study.system: OVCAR-8 ovarian
observed: 84.9% (inactive)
--
compound: O=c1[nH]c2cc(Cl)c(Cl)cc2n2cc3ncccc3c12
study.system: OVCAR-8 ovarian
observed: 82.4% (inactive)
--
compound: COc1ccc(C(=O)CSc2nnc(-c3cc(-c4ccccc4)nc4ccccc34)o2)cc1
study.system: OVCAR-8 ovarian
observed: 103% (inactive)
--
compound: Cc1ncc(C(=O)Nc2ccc(CN3CCN(C)CC3)c(C(F)(F)F)c2)cc1C#Cc1c(N)ncc2ccc(C#N)cc12
study.system: OVCAR-8 ovarian
observed: 53.2% (inactive)
--
compound: C=C(CC(=O)OC)C(C)=O
study.system: OVCAR-8 ovarian
observed: 107% (inactive)
--
compound: CC1=CC[C@@H]2C(C)(C)C(=O)CC[C@@]2(C)[C@@H]1COc1ccc2ccc(=O)oc2c1
study.system: OVCAR-8 ovarian
observed: 51.1% (inactive)
--
compound: C=C(CN=[N+]=[N-])[C@@H]1CC[C@]2(C)[C@H](CC[C@@H]3[C@H]4[C@H]5OC(=O)[C@@]4(CCC5(C)C)CC[C@]32C)[C@@]1(C)CCC#N
study.system: OVCAR-8 ovarian
observed: 92.2% [100 µM] (inactive)
--
compound: CCCN1CC(c2ccc(OC)c(OC)c2)=C(c2cn(C(=O)OCC)c3ccccc23)C1=O
study.system: OVCAR-8 ovarian
observed: 71.5% (inactive)
--
compound: NNC(=O)c1ccc(C(=O)NN)cc1
study.system: OVCAR-8 ovarian
observed: 84.9% (inactive)
--
compound: CCCOc1ccc(-c2nc(-c3ccc(N)cc3)cs2)cc1
study.system: OVCAR-8 ovarian
observed: 87% (inactive)
--
compound: Cc1ccc(-c2cc(-c3ccc(C)cc3)nc(N3CCN(CCNc4ccnc5cc(Cl)ccc45)CC3)n2)cc1
study.system: OVCAR-8 ovarian
observed: 25.4% (inactive)
--
compound: Cc1cc[n+](CCCCCCCCCC[n+]2ccc(C)cc2)cc1
study.system: OVCAR-8 ovarian
observed: 99% (inactive)
--
compound: COc1cc(/C=C/C(=O)/C=C/c2ccc(-n3ccnc3C)cc2)ccc1O
study.system: OVCAR-8 ovarian
observed: 34.9% (inactive)
--
compound: Cc1cc(C)c(O)c(CNCCCNCc2cc(C)cc(C)c2O)c1
study.system: OVCAR-8 ovarian
observed: 82.2% (inactive)
--
compound: CCOC(=O)c1nn(C2CCCCO2)c2ccc(NC(=O)CN3CCOCC3)cc12 (centres undefined)
study.system: OVCAR-8 ovarian
observed: 99.6% (inactive)
